Reference source: patent US20220096454A1

molecular target: TNKS2 (Homo sapiens, UniProt Q9H2K2); construct: GST-tagged Tnks-2 (873-1166 aa, prepared in-house); made in house; assay: TNKS2 activity ELISA (autoparsylation assay); format: biochemical; settings: GST-tagged Tnks-2 (873-1166 aa), 10 μM bio-NAD, 1 hour at 30° C.
Sequence (Q9H2K2 873-1166): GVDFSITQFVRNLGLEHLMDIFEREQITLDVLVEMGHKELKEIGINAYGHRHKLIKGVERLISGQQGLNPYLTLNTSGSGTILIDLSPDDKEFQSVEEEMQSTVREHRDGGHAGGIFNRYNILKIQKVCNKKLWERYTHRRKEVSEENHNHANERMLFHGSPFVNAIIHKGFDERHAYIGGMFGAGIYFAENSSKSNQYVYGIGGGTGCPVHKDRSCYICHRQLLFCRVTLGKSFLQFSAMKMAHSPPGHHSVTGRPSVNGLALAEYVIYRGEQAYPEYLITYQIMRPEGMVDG
Could you mark each record true (1) if its IC50 falls strictly under 0.9 nM, and false (0) if it equals or exceeds it?

(Q) # TODO verify IC50 < 0.9 nM strictly for this molecule: COc1ccc(N(C)C(=O)N2CCC(C(=O)c3ccc4cc(C(=O)O)n(C)c4c3)CC2)cc1
(A) false (0)

(Q) # TODO verify IC50 < 0.9 nM strictly for this molecule: CN(C(=O)N1CCC(C(=O)c2ccc3c(cnn3C)c2)CC1)c1ccc(C(=O)O)cc1
(A) false (0)

(Q) # TODO verify IC50 < 0.9 nM strictly for this molecule: CN(C(=O)N1CCC(C(=O)c2ccc3cc(C(=O)O)n(C)c3c2)CC1)c1ccc(F)cc1
(A) false (0)

(Q) # TODO verify IC50 < 0.9 nM strictly for this molecule: CCN(C(=O)N1CCC(C(=O)c2ccc3nnn(C)c3c2)CC1)c1ccc(C(=O)O)cc1
(A) true (1)

----------
Molecular target: TNKS1 (Homo sapiens)
Construct: GST-tagged Tnks-1 (1023-1327 aa, prepared in-house); made in house
Sequence (O95271 1023-1327): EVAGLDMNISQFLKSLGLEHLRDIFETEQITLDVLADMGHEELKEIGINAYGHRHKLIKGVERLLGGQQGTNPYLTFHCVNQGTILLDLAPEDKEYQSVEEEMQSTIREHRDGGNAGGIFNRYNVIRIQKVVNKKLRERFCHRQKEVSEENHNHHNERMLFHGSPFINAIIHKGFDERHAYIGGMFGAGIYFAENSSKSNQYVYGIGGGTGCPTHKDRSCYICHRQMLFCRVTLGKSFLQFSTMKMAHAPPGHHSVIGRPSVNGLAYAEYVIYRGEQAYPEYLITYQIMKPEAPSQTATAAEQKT
Experiment: TNKS1 activity ELISA (autoparsylation assay)
Type: biochemical
Conditions: GST-tagged Tnks-1 (1023-1327 aa), 10 μM bio-NAD, 1 hour at 30° C.
Procedure: Description of the TNKS1 and TNKS2 ELISA Assay Biochemical activity testing of TNKS 1 and 2: activity ELISA (Autoparsylation assay) For analysis of autoparsylation activity of TNKS 1 and 2 an activity ELISA is performed: In the first step GST tagged TNKS is captured on a Glutathione coated plate. Then the activity assay with biotinylated NAD is performed in the absence/presence of the compounds. […] The amount of biotinylated resp. autoparsylated TNKS is detected with a luminescence substrate for HRP. […]
# key: entry, value: IC50
Write down the numeric answer in nM and omit the unit.

Value of measured IC50 for the entry CCN(C(=O)N1CCC(C(=O)c2ccc3nnn(C)c3c2)CC1)c1ccc(C(=O)O)cc1 : 0.472

Value of measured IC50 for the entry COc1ccc(N(C)C(=O)N2CCC(C(=O)c3ccc4c(C(=O)O)nn(C)c4c3)CC2)cc1 : 1.4

Value of measured IC50 for the entry CN(C(=O)N1CCC(C(=O)c2ccc3ncn(C)c3c2)CC1)c1ccc(C(=O)O)cc1 : 1.5

Value of measured IC50 for the entry CCN(C(=O)N1CCC(C(=O)c2ccc3cnn(C)c3c2)CC1)c1cccc(C(=O)O)c1 : 0.58

Value of measured IC50 for the entry CCN(C(=O)N1CCC(C(=O)c2ccc3c(c2)c(C(=O)O)nn3C)CC1)c1ccc(F)cc1 : 12.4

----------
target: TNKS2 (Homo sapiens, UniProt Q9H2K2); construct: GST-tagged Tnks-2 (873-1166 aa, prepared in-house); made in house; experiment: TNKS2 activity ELISA (autoparsylation assay); format: biochemical; details: GST-tagged Tnks-2 (873-1166 aa), 10 μM bio-NAD, 1 hour at 30° C.
# key: entry, value: IC50
Write down the numeric answer in nM and omit the unit.

Worked cases, IC50 given:
Value of measured IC50 for the entry CCN(C(=O)N1CCC(C(=O)c2ccc3c(c2)ncn3C)CC1)c1ccc(C(=O)O)cc1 [Compound C31] : 2.6

Value of measured IC50 for the entry CN(C(=O)N1CCC(C(=O)c2ccc3c(c2)c(C(=O)O)nn3C)CC1)c1ccc(F)cc1 [Compound C13] : 49.9

Value of measured IC50 for the entry CN(C(=O)N1CCC(C(=O)c2ccc3c(C(=O)O)nn(C)c3c2)CC1)c1ccc(F)cc1 [Compound C9] : 1.66

Value of measured IC50 for the entry CCN(C(=O)N1CCC(C(=O)c2ccc3c(c2)cc(C(=O)O)n3C)CC1)c1ccc(F)cc1 [Compound C6] : 1.4

Value of measured IC50 for the entry CN(C(=O)N1CCC(C(=O)c2ccc3nnn(C)c3c2)CC1)c1ccc(C(=O)O)cc1 [Compound C34] : 1.1

Value of measured IC50 for the entry CN(C(=O)N1CCC(C(=O)c2ccc3c(c2)ncn3C)CC1)c1ccc(C(=O)O)cc1 [Compound C30] : 10

New cases:
Value of measured IC50 for the entry CCN(C(=O)N1CCC(C(=O)c2ccc3c(c2)c(C(=O)O)nn3C)CC1)c1ccc(F)cc1 [Compound C14] : 5.91

Value of measured IC50 for the entry CN(C(=O)N1CCC(C(=O)c2ccc3c(c2)cc(C(=O)O)n3C)CC1)c1ccc(F)cc1 [Compound C5] : 1.4
